target under test: human recombinant NOP receptor (Homo sapiens, UniProt P41146)
Construct: expressed in transfected cells
Sequence (P41146 whole entry): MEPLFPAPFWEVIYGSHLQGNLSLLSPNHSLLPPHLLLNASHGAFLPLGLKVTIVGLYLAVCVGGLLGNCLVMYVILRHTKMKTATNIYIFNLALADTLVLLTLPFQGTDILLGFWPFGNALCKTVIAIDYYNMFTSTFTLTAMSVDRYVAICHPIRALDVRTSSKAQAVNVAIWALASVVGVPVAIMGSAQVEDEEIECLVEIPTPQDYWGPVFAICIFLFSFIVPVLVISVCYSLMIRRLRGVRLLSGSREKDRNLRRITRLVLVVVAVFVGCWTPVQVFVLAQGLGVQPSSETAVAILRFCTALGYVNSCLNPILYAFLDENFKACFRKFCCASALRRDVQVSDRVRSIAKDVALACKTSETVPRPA
experiment description: cell-based
Type: cell-based
conditions used: Ca2+ mobilization pEC50 (CL95%)
Ends that are not written are not given here.
assay endpoint: pEC50
One number for each entry, as −log10 of the molar value.

Inquiry: I'd like to know its pEC50. The substance in question is FGGFTGARKSAR-NH2 [compound 10, N/OFQ(1-12)-NH2]
Reply text: 9.70
